Measured values drawn from paper PMC4481117 for this set.

Tested on: αMI-domain
assayText: αMI-domain binding to cellulose-bound peptide libraries (SPOT, autoradiography, densitometry)
settings: 9-mer peptides, 3-residue offset, N-acetylated, cellulose-bound via (β-Ala)2; 10 μg/ml 125I-labeled αMI-domain (active form), TBS 1 mM MgCl2; percentage of binding to peptide #1 (100 %)
Rule: Densitometry, % (αMI-domain binding) under 90% gives n, otherwise y.

These solved cases illustrate the format of a correct answer.
- orderedResidues: "KWDNQKRYG"
  measuredOn: "αMI-domain"
  discreteLabel: "n"
- orderedResidues: "PKLKWDNQK"
  measuredOn: "αMI-domain"
  discreteLabel: "n"
- orderedResidues: "RRQFKVVGG"
  measuredOn: "αMI-domain"
  discreteLabel: "y"

Q) Given the entry GFLRRQFKV , answer whether its Densitometry, % (αMI-domain binding) meets or surpasses 90%.
A) y

Q) Given the entry YGGFLRRIR , answer whether its Densitometry, % (αMI-domain binding) meets or surpasses 90%.
A) y

Q) Given the entry RIRPKLKWD , answer whether its Densitometry, % (αMI-domain binding) meets or surpasses 90%.
A) n

Q) Given the entry FLRRIRPKL , answer whether its Densitometry, % (αMI-domain binding) meets or surpasses 90%.
A) y
